# subjectOfTest: T1, ROR1 Ig-like domain (human, UniProt Q01973 42-147)
# T1 construct: also called Acro Cat. No. RO1-H5221
# runDescription: BLI, IgG1 on biosensor, soluble ROR1 domain

binder	binding result
I2C-12 IgG1 (antibody, V domains shown, human IgG1) VH: EVQLVESGGGLVQPGGSLRLSCAASGFTFSSYFIHWVRQAPGKGLEWVAAIHPAFSFTYYADSVKGRFTISADTSKNTAYLQMNSLRAEDTAVYYCARPRLSSAVVLDYWGQGTLVTVSS VL: DIQMTQSPSSLSASVGDRVTITCRASQSVSSAVAWYQQKPGKAPKLLIYSASSLYSGVPSRFSGSRSGTDFTLTISSLQPEDFATYYCQQGYYFPGTFGQGTKVEIK	binds
I2C-2 IgG1 (antibody, V domains shown, human IgG1) VH: EVQLVESGGGLVQPGGSLRLSCAASGFTFSDYFIHWVRQAPGKGLEWVAGIYPYSGYTKYADSVKGRFTISADTSKNTAYLQMNSLRAEDTAVYYCARDHSPVLDYWGQGTLVTVSS VL: DIQMTQSPSSLSASVGDRVTITCRASQSVSSAVAWYQQKPGKAPKLLIYSASSLYSGVPSRFSGSRSGTDFTLTISSLQPEDFATYYCQQWYYWPGTFGQGTKVEIK	binds
I2A-14 IgG1 (antibody, V domains shown, human IgG1) VH: EVQLVESGGGLVQPGGSLRLSCAASGFTFDSYVIHWVRQAPGKGLEWVAYIFSFGGYTYYADSVKGRFTISADTSKNTAYLQMNSLRAEDTAVYYCARSPYGTFALDYWGQGTLVTVSS VL: DIQMTQSPSSLSASVGDRVTITCRASQSVSSAVAWYQQKPGKAPKLLIYSASSLYSGVPSRFSGSRSGTDFTLTISSLQPEDFATYYCQQYYYTPGTFGQGTKVEIK	binds
